molecular target: Acetylcholinesterase (Homo sapiens) (UniProt P22303); assay: Acetylcholinesterase (AChE) small molecule antagonists: enzyme-based qHTS assay with human liver microsomes (AID 1347399); details: qHTS inhibition; series mostly up to 115 µM; note: nearly all actives have a fitted effect of over 60% in size
Sequence (P22303 whole entry, looked up): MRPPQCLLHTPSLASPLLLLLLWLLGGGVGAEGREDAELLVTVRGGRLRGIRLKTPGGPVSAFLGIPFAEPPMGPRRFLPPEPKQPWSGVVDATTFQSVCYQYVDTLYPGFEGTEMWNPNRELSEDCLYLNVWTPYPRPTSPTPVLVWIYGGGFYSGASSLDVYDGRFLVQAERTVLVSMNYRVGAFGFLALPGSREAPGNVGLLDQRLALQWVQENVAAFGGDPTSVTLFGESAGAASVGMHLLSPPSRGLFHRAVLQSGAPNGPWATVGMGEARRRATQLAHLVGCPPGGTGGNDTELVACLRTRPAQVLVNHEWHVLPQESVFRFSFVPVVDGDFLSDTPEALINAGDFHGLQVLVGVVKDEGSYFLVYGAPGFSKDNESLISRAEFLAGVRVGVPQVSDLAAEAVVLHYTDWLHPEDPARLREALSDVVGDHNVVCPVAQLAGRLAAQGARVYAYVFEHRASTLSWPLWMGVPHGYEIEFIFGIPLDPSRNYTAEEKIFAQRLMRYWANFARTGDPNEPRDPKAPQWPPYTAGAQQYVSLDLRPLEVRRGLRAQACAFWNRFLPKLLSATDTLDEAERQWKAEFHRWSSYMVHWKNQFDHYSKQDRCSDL
Calls of active or inactive are those of the source. Calls come from the whole dose curve.
MEASURED ENDPOINT: outcome

// known answers, use as guide
{"columns": ["MOLECULE", "outcome"],
 "data": [
  ["N#CCN(CC#N)CCN(CC#N)CC#N", "inactive"],
  ["Cc1c(C(=O)NCCO)[n+](=O)c2ccccc2n1[O-]", "inactive"],
  ["NC(=O)CCCCC(N)=O", "inactive"],
  ["CS(=O)(=O)c1ccc([C@@H](C[C@H]2CCC(=O)C2)C(=O)Nc2cnccn2)cc1Cl", "inactive"],
  ["Nc1ccn([C@@H]2O[C@H](CO)[C@@H](O)C2(F)F)c(=O)n1", "inactive"],
  ["CCN(CC)CCNC(C(=O)OCCC(C)C)c1ccccc1 (stereo unspecified)", "inactive"],
  ["C=C(C)C1CCC(C)(O)CC1 (stereo unspecified)", "inactive"],
  ["CCN(CC)CCCN(c1ccccc1)C1Cc2ccccc2C1", "inactive"]
]}

In: Please indicate outcome recorded for O=S(=O)(O)c1ccc(Nc2nc(Nc3ccc(/C=C/c4ccc(Nc5nc(Nc6ccc(S(=O)(=O)O)cc6)nc(N(CCO)CCO)n5)cc4S(=O)(=O)O)c(S(=O)(=O)O)c3)nc(N(CCO)CCO)n2)cc1
Out: inactive

In: Answer with the recorded outcome for the molecule listed here: C1C2OC2C2C1C1CC2C2OC12 (stereo unspecified)
Out: inactive

In: Please look at this molecule and report its outcome: CCCCCC=CCC=CCCCCCCCC(=O)OCC
Out: inactive

----------
assay: qHTS assay for identifying genotoxic compounds that show differential cytotoxicity against isogenic chicken DT40 cell lines with known DNA damage response pathways - Rev3 mutant cell line (AID 743014); conditions: chicken DT40 Rev3-/- viability, CellTiter-Glo, 40 h; series mostly up to 68.4 µM; note: nearly all actives have a fitted effect of over 55% in size
Results filed as inconclusive are left out. The source made the active and inactive calls. Calls follow the shape of the dose curve; as a rule, active = well fitted cell-killing curve with a large enough effect in the repeat runs; inconclusive = weak or mixed curves, or effect the other way; inactive = no such curve, though single readings can be large or run the other way.
Outcome field: choose from active, inactive

# example entries with known answers
{"columns": ["MOLECULE", "ASSIGNED CATEGORY"],
 "data": [
  ["O=C(O)c1ccccc1[O-].O=C(O)c1ccccc1[O-].[Zn+2]", "inactive"],
  ["Clc1ccc([C@@H]2C[C@H]3CC[C@@H]2N3)cn1", "inactive"],
  ["CCC(=O)O[C@](Cc1ccccc1)(c1ccccc1)[C@H](C)CN(C)C", "active"],
  ["C#C[C@]1(OC(=O)CCCCCC)CC[C@H]2[C@@H]3CCC4=CC(=O)CC[C@@H]4[C@H]3CC[C@@]21C", "active"],
  ["C[C@]12CC[C@H]3[C@@H](CCC4=CC(=O)CC[C@@]43C)[C@@H]1CC[C@@H]2OC(=O)CCc1ccccc1", "active"]
]}

In: In this assay, the call recorded for CNC(C)[C@@H]1CC[C@@H](N)[C@@H](O[C@H]2[C@H](O)[C@@H](O[C@H]3OC[C@](C)(O)[C@H](NC)[C@H]3O)[C@H](N)C[C@@H]2N)O1 (stereo partly specified) was what?
Out: inactive

----------
biological target: Acetylcholinesterase (Homo sapiens); experiment: Acetylcholinesterase (AChE) small molecule antagonists: colormetric cell-based qHTS assay (AID 1347395); settings: SH-SY5Y cells AChE activity, colorimetric (Ellman); series mostly up to 115 µM; note: nearly all actives have a fitted effect of over 30% in size
Inconclusive results are not listed. Active and inactive are the calls of the source. Calls follow the shape of the full dose curve.
Use one of these outcomes when replying: active, inactive

Before answering, review these 4 worked examples.
{"columns": ["MOLECULE", "ASSIGNED CATEGORY"],
 "data": [
  ["C[C@@H]1CC[C@H]2C(C)(C)[C@H]3C[C@@]12CC[C@@]3(C)O", "inactive"],
  ["Cc1ccc(Nc2ccc(O)c3c2C(=O)c2ccccc2C3=O)cc1", "inactive"],
  ["O=C(C(=O)c1ccco1)c1ccco1", "inactive"],
  ["CC(=O)N[C@@H](CC(C)C)C(=O)O", "inactive"]
]}

In: Would you mind telling me which call this test gave O=S(=O)(O)c1cc(O)c2ccc(Nc3ccccc3)cc2c1 ?
Out: inactive

In: Called result for CNCc1ccc(NC(=O)c2c[nH]c3c2C(=O)CCC3)cc1
Out: active

Data credit: PubChem BioAssay (Tox21)
